B1: INTS4 (parent)
chain: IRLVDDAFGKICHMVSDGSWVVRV

Variants of: B1
Assay: protein stability index of a GFP-peptide fusion (GPS, HEK-293T) (PSI 1-6); higher = more stable;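 further: lentivirally expressed fusions sorted by FACS into six bins by GFP to DsRed ratio, PSI derived from sequencing read proportions per bin multiplied by bin number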
Settings: c terminus: a fixed tail appended
Values of protein stability index greater than or equal to 3 map to true (1); values below map to false (0).

Is the recorded value of protein stability index equal to or greater than 3 for this variant? D17G false (0)

Is the recorded value of protein stability index equal to or greater than 3 for this variant? L3E true (1)

Is the recorded value of protein stability index equal to or greater than 3 for this variant? S16L true (1)

Is the recorded value of protein stability index equal to or greater than 3 for this variant? D17V true (1)

Is the recorded value of protein stability index equal to or greater than 3 for this variant? D5P false (0)

Is the recorded value of protein stability index equal to or greater than 3 for this variant? M14Q false (0)

Is the recorded value of protein stability index equal to or greater than 3 for this variant? V21L false (0)

Is the recorded value of protein stability index equal to or greater than 3 for this variant? A7W true (1)

Is the recorded value of protein stability index equal to or greater than 3 for this variant? L3V true (1)

Is the recorded value of protein stability index equal to or greater than 3 for this variant? V22T true (1)

Is the recorded value of protein stability index equal to or greater than 3 for this variant? R2F true (1)

Is the recorded value of protein stability index equal to or greater than 3 for this variant? V4L true (1)

Is the recorded value of protein stability index equal to or greater than 3 for this variant? V21P false (0)

Is the recorded value of protein stability index equal to or greater than 3 for this variant? K10I false (0)

Is the recorded value of protein stability index equal to or greater than 3 for this variant? D6L false (0)

Is the recorded value of protein stability index equal to or greater than 3 for this variant? D5I false (0)

Is the recorded value of protein stability index equal to or greater than 3 for this variant? W20H true (1)

Is the recorded value of protein stability index equal to or greater than 3 for this variant? V15R true (1)

Is the recorded value of protein stability index equal to or greater than 3 for this variant? V22I true (1)

Is the recorded value of protein stability index equal to or greater than 3 for this variant? D6E true (1)

Is the recorded value of protein stability index equal to or greater than 3 for this variant? C12Q false (0)

Is the recorded value of protein stability index equal to or greater than 3 for this variant? F8C false (0)

Is the recorded value of protein stability index equal to or greater than 3 for this variant? A7F false (0)
